Tested on: microorganisms
Test: Morphology, biofilm and growth disruption by peptides (Table 5)
Format: cell-based
Set-up: key: A: Peptide aggregates; B: Less hyphal formation; Clumps; Diffuse clumps and small polyps; F: Diffuse growth; H: Thin; I: Growth inhibition; Microcolony formation; Rippled; Small polyps; Thick; W: Halo formation on top, microlonies on bottom
Conditions: S. pneumoniae
OBSERVABLE: Organism, effect (morphology, biofilm and growth disruption)

Field: example entries. Status: answers known.
PF-432 (FNGDSEFFLCIAF; Peptide with targeting and/or antimicrobial activity) | S. pneumoniae (D)
HKNKLNIPHIKS [PF-477] | S. pneumoniae (H)
PF-518 (SFYSKYSRYIDNLAGAIFLFF; Peptide with targeting and/or antimicrobial activity) | S. pneumoniae (M)
EILNNNQVIKELTMKYKTQFESNLGGWTARARR [PF-580] | S. pneumoniae (C)
PF-587 (ASGKYQSYLLNVYVDSKKDRLDIFDKLKAKAKFVL; Peptide with targeting and/or antimicrobial activity) | S. pneumoniae (C)

Organism, effect (morphology, biofilm and growth disruption) measured on PF-623 (chain 1 VLFAVYLGALDWLFSWLTQKM; chain 2 VLFAVYLGALDWLFSWLTQKM; Peptide with targeting and/or antimicrobial activity) = S. pneumoniae (D)

Record summary for PF-619 (chain 1 WSRVPGHSDTGWKVWHRW; chain 2 WSRVPGHSDTGWKVWHRW; Peptide with targeting and/or antimicrobial activity) : reported Organism, effect (morphology, biofilm and growth disruption) = S. pneumoniae (C)

Per the record, KNKKQTDILEKVKEILDKKKKTKSVGQKLY [PF-538] has Organism, effect (morphology, biofilm and growth disruption) of S. pneumoniae (H)

Organism, effect (morphology, biofilm and growth disruption) for PF-684 (chain 1 RKLSLASGFALWRRSLV; chain 2 RKLSLASGFALWRRSLV; Peptide with targeting and/or antimicrobial activity) is S. pneumoniae (C)

PF-467 (YYKDYFKEI; Peptide with targeting and/or antimicrobial activity) has a reported Organism, effect (morphology, biofilm and growth disruption) of S. pneumoniae (H)
